biological target: Recombinant human GST P1-1 (Homo sapiens); construct: purchased EMD Biosciences, Inc., San Diego, Calif., U.S.A; assay: Inhibition of glutathione S-transferase isoenzyme GST P1-1; format: biochemical
Sequence (P09211 2-210 limits assumed): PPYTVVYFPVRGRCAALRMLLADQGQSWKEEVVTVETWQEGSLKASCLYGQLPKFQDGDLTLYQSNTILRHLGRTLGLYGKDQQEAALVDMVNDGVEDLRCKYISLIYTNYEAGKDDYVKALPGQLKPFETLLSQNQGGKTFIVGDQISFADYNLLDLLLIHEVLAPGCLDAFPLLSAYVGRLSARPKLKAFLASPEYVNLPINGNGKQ
*1 amine or outer side, *2 acyl side, *3 side chain or, on linkers, in order; H or OH if unused. Where a SMILES comes first, the peptide text is derived from it. [ ]: non-standard residue; d: D form. The star is where a group is joined. γGlu = O=C(O)[C@H](CCC(=O)[*:2])N[*:1]; dPhg = N[C@@H](C(=O)O)c1ccccc1; Bn = c1ccc(C*)cc1
Endpoint: IC50 (nM)
Entry rule: numbers only, all in nM.

(Q) Specify IC50 for N[C@@H](CCC(=O)N[C@@H](CSCc1ccccc1)C(=O)N[C@@H](C(=O)O)c1ccccc1)C(=O)O [TLK117] (γGlu-Cys(Bn)-[dPhg]-OH) and stop.
(A) 409

====

target: Recombinant human GST M1-1 (Homo sapiens, UniProt P09488); construct: purchased EMD Biosciences, Inc., San Diego, Calif., U.S.A; test: Inhibition of glutathione S-transferase isoenzyme GST M1-1; assay type: biochemical; conditions: diacid compounds; GSH and CDNB at 2×Km, pH 6.5; read-out: GST M1-1 IC50
Sequence (P09488 2-218 limits assumed): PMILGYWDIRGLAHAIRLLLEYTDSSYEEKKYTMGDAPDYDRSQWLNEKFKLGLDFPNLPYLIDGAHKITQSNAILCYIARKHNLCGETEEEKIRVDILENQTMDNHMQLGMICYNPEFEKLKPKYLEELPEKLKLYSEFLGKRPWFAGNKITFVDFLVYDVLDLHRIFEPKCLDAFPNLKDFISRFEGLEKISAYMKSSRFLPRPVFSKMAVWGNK
Endpoint: pIC50
Note: pIC50 values are expressed as the negative base-10 logarithm of concentration in M.

(Q) Specify pIC50 for N[C@@H](CCC(=O)N[C@@H](CSCc1ccc(Cl)cc1)C(=O)N[C@@H](C(=O)O)c1ccccc1)C(=O)O [TLK137] and stop.
(A) 5.19
